System: SW-620
Experiment: NCI tumour cell line growth inhibition, 48 h
Activity calls are given as the source filed them. Cut-off read from the data, not from the text of the source: active = GI50 up to about 1.1 µM and inactive = higher.
The compounds listed here are annotated with their GI50.

>>> result("Nn1c(CCCCCCCCc2nnc(COc3ccc4ccccc4c3O)n2N)nnc1COc1ccc2ccccc2c1O")
"52.7 µM (inactive)"
>>> result("CC(N)Cc1ccc(Cl)cc1 (configuration not stated)")
"> 100 µM (inactive)"

Looking up C[s+]1c2ccccc2c2ccccc21 , I see its GI50 listed as > 100 µM (inactive)

Looking up CCOc1ccc(/N=C/C=C(\Cl)c2ccc3ccccc3c2)cc1 , I see its GI50 listed as 7.33 µM (inactive)

Looking up NC1=NN(c2ccccc2)C2(c3ccncc3C(=O)O)C1C(N)=NN2c1ccccc1 (configuration not stated) , I see its GI50 listed as > 100 µM (inactive)

Looking up COC(=O)C12CC(C3CC31)C1CC12 (configuration not stated) , I see its GI50 listed as > 100 µM (inactive)

Looking up CON(C)C(=O)C(C)N(Cc1ccccc1)Cc1ccccc1 (configuration not stated) , I see its GI50 listed as > 100 µM (inactive)

Looking up Oc1cc(-c2ccc(F)cc2)nc2ncc(Cl)cc12 , I see its GI50 listed as 11.1 µM (inactive)

Looking up NC(=O)/N=C(\N)NC(=O)c1ccccc1 , I see its GI50 listed as > 100 µM (inactive)

Looking up COc1ccc(Cn2nc(OCc3ccccc3)c3cc([N+](=O)[O-])ccc32)cc1 , I see its GI50 listed as > 100 µM (inactive)

Looking up COc1ccc2ccc3c(c2c1)CN1CCc2cc(OC)c(OC)cc2C1C3 (configuration not stated) , I see its GI50 listed as > 100 µM (inactive)

Looking up O=[N+]([O-])c1sc2ccc(Cl)cc2c1Nc1ccc(Cl)cc1 , I see its GI50 listed as > 100 µM (inactive)

----------
Test system: A549
Test: NCI tumour cell line growth inhibition, 48 h
Calls of active or inactive are those of the source. Cut-off read from the data, not from the text of the source: active = GI50 up to about 1.1 µM and inactive = higher.
The compounds listed here are annotated with their GI50.

Study these solved cases before continuing.
>>> result("C/C1=C/C2OC(=O)C3(C)C2C(CC2(C)OC1=CC2=O)OC3(O)C(C)C (stereo not drawn)")
"> 56 µM (inactive)"
>>> result("COc1ccc(/C=C(\\NC(=O)c2ccccc2)c2nc3ccccc3[nH]2)cc1OC")
"> 100 µM (inactive)"

// moving on: another record for GI50
Looking up O=[N+]([O-])c1ccc(/C=C/c2cc(-c3ccccc3)nc3ccc4ccccc4c23)cc1 , I see its GI50 listed as > 100 µM (inactive)

----------
Tested on: NCI-H23
Assay: NCI tumour cell line growth inhibition, 48 h
Activity calls are given as the source filed them. Cut-off read from the data, not from the text of the source: active = GI50 up to about 1.1 µM and inactive = higher.
attribute-measured: GI50

>>> result("Cc1cc(NS(=O)(=O)c2ccc(NC(=O)c3ccc4nc5ccccc5c(Nc5ccc(S(=O)(=O)Nc6cc(C)on6)cc5)c4c3)cc2)no1")
"> 50 µM (inactive)"
>>> result("Cc1ccc(CC(Cc2ccccc2C)C(=O)O)c(C(=O)O)c1 (stereo not given)")
"> 100 µM (inactive)"
>>> result("Cc1ccccc1NC(=O)C(=O)CC(=O)C1CCOC1=O (stereo not given)")
"> 100 µM (inactive)"
>>> result("CC12CC(=O)C3C(C(=O)C1)C32C (stereo not given)")
"> 100 µM (inactive)"
>>> result("COC(=O)c1c(C)cccc1/C=C1\\Cc2cc(C)cc(C)c2C1=O")
"51.1 µM (inactive)"

Looking up Cc1csc(NC23CC4CC(CC(C4)C2)C3)[n+]1C(P(=O)([O-])O)P(=O)(O)O (stereo not given) , I see its GI50 listed as > 100 µM (inactive)

Looking up CCN(CC)c1ccc(/C=C/C2=NN(c3cccc(S(=O)(=O)O)c3)C3(C2)C(Cl)C(=O)N3c2nc3ccccc3s2)cc1 (stereo not given) , I see its GI50 listed as 7.01 µM (inactive)

----------
Test system: K562
Assay: NCI tumour cell line growth inhibition, 48 h
The source made the active and inactive calls. No stated cut-off is given here; in the data, active = GI50 up to about 1.1 µM and inactive = higher.
The molecules listed here are annotated with their GI50.

Study these solved cases before continuing.
>>> result("OC(c1cc(C23CC4CC(CC(C4)C2)C3)nc2c(Cl)cc(Cl)cc12)C1CCCCN1 (configuration not stated)")
"1.51 µM (inactive)"
>>> result("O=C(CCN1CCCCC1)C(=Cc1ccccc1)C(=O)CCN1CCCCC1")
"19.7 µM (inactive)"
>>> result("Cc1ccc(NC(c2ccccc2)c2ccc3cccnc3c2O)cc1 (configuration not stated)")
"3.02 µM (inactive)"

Looking up COc1ccc(N2C(=O)CC(c3c[nH]c4ccccc34)C2=O)cc1 (configuration not stated) , I see its GI50 listed as > 100 µM (inactive)

Looking up Brc1cc(C2OCCCO2)ccc1OCc1ccccc1 , I see its GI50 listed as 34.5 µM (inactive)

Looking up CC(C)c1c(O)c(O)c2c(c1O)C(=O)C(O)=C1C(C)(C)CCC[C@@]12C , I see its GI50 listed as 2.77 µM (inactive)

Looking up COC(=O)C12CC(C3CC31)C1CC12 (configuration not stated) , I see its GI50 listed as > 100 µM (inactive)

Looking up Cn1cnc([N+](=O)[O-])c1Sc1n[nH]c(-c2ccc(Cl)cc2)n1 , I see its GI50 listed as 13.7 µM (inactive)

Looking up Cc1ccc(-c2nnc(SCC(=O)O)[nH]2)cc1 , I see its GI50 listed as > 100 µM (inactive)

Looking up Cc1cc(NS(=O)(=O)c2ccc(NC(=O)c3ccc4nc5ccccc5c(Nc5ccc(S(=O)(=O)Nc6cc(C)on6)cc5)c4c3)cc2)no1 , I see its GI50 listed as > 50 µM (inactive)

Looking up O=C(CC1C(=O)Nc2ccccc2S1(=O)=O)Nc1cc(Cl)ccc1Cl (configuration not stated) , I see its GI50 listed as 13.9 µM (inactive)

----------
System: RXF 393
Assay: NCI tumour cell line growth inhibition, 48 h
Calls of active or inactive are those of the source. Cut-off read from the data, not from the text of the source: active = GI50 up to about 1.1 µM and inactive = higher.
The compounds listed here are annotated with their GI50.

Study these solved cases before continuing.
>>> result("CCOc1ccc(/N=C/C=C(\\Cl)c2ccc3ccccc3c2)cc1")
"15.3 µM (inactive)"
>>> result("O=C(NCCCNCCCCNCCCNC(=O)c1cc(-c2ccccc2)nc2ccccc12)c1cc(-c2ccccc2)nc2ccccc12")
"3.69 µM (inactive)"
>>> result("CC(C)(C)c1ccc(-c2nnc(-c3cc(C#N)cc(-c4nnc(-c5ccc(C(C)(C)C)cc5)o4)c3)o2)cc1")
"0.0107 µM (active)"

Looking up CC(C)/C(Cl)=N/OC(=O)Nc1ccc(F)c(Cl)c1 , I see its GI50 listed as 12.9 µM (inactive)

Looking up O=[N+]([O-])c1sc2ccc(Cl)cc2c1Nc1ccc(Cl)cc1 , I see its GI50 listed as > 100 µM (inactive)

----------
The compounds listed here are annotated with their GI50.
System: OVCAR-3
Experiment: NCI tumour cell line growth inhibition, 48 h
Calls of active or inactive are those of the source. Rule as the data show it: active = GI50 up to about 1.1 µM and inactive = higher.

>>> result("NC1CC(=O)c2c(Br)csc21 (stereo unspecified)")
"50.6 µM (inactive)"
>>> result("NS(=O)(=O)c1cc2c(cc1Cl)NCNS2(=O)=O [HYDROCHLOROTHIAZIDE]")
"> 100 µM (inactive)"
>>> result("O=c1c(O)c(-c2cc(O)c(O)cc2O)oc2cc(O)c(C3OC(CO)C(O)C(O)C3O)c(O)c12 (stereo unspecified)")
"> 100 µM (inactive)"
>>> result("CN1C(=O)CC2(C)c3cc(O)cc(Br)c3N(C)C12 (stereo unspecified)")
"> 100 µM (inactive)"
>>> result("Fc1cccc(C2SCC3=Nc4ccccc4CN32)c1 (stereo unspecified)")
"20.2 µM (inactive)"

// moving on: another record for GI50
Looking up c1csc(-c2cc(-c3ccsc3)c(-c3cccs3)s2)c1 , I see its GI50 listed as > 100 µM (inactive)

----------
Test system: SK-OV-3
Assay: NCI tumour cell line growth inhibition, 48 h
Active and inactive are the calls of the source. Rule as the data show it: active = GI50 up to about 1.1 µM and inactive = higher. Where a SMILES comes first, the peptide text is derived from it. [ ]: non-standard residue; d: D form. The star is where a group is joined. ξ: configuration not given here. Propanoyl(3-(4-MeO-Ph)) = COc1ccc(CCC(=O)*)cc1; Thr(3ξ) = CC(O)[C@H](N)C(=O)O; dNMeL = CN[C@H](CC(C)C)C(=O)O; OBn = c1ccc(CO*)cc1; ξLac = CC(O)C(=O)O
The compounds listed here are annotated with their GI50.

>>> result("COc1cc(OC)c(Oc2cccc(OC)c2OC)c(OC)c1")
"> 100 µM (inactive)"

Looking up C#C[C@]1(O)CCC2C3CCc4cc(Oc5nc(F)nc(-n6c(C)nc7cc8ccccc8cc76)n5)ccc4C3CCC21C (some centres not stated) , I see its GI50 listed as 62.1 µM (inactive)

Looking up COc1ccc(CCC(=O)OC(C)[C@H](NC(=O)[C@@H](CC(C)C)N(C)C(=O)[C@@H]2CCCN2C(=O)C(C)O)C(=O)OCc2ccccc2)cc1 (some centres not stated) (H-[ξLac]P[dNMeL][Thr(3ξ)](Propanoyl(3-(4-MeO-Ph)))-OBn) , I see its GI50 listed as 84.1 µM (inactive)

Looking up CCOC(=O)CCc1cc(=O)oc2cc(O)cc(O)c12 , I see its GI50 listed as > 100 µM (inactive)

Looking up CCOC(=O)NC(=O)c1cn(C(CC)COC(=O)NCCCCCCNC(=O)OCC(CC)n2cc(C(=O)NC(=O)OCC)c(=O)[nH]c2=O)c(=O)[nH]c1=O (configuration not stated) , I see its GI50 listed as > 100 µM (inactive)

Looking up COc1ccc(-c2coc3cc(OC)cc(O)c3c2=O)cc1 [4',7-DIMETHOXY-5-HYDROXYGENISTEIN] , I see its GI50 listed as > 100 µM (inactive)

Looking up O=C1C[C@@H](Sc2ccccc2)C2(OCCO2)[C@H]2ON3CCC[C@@H]3[C@@H]12 , I see its GI50 listed as 13.2 µM (inactive)
